Target: T1, human cMet expressed on 3T3 cells (human, UniProt P08581 25-1390)
T1 construct: whole, on cells; cells fixed with glutaraldehyde; also called cell surface-expressed human cMet; 3T3 cells that over-express human cMet
T1 sequence (P08581 25-1390): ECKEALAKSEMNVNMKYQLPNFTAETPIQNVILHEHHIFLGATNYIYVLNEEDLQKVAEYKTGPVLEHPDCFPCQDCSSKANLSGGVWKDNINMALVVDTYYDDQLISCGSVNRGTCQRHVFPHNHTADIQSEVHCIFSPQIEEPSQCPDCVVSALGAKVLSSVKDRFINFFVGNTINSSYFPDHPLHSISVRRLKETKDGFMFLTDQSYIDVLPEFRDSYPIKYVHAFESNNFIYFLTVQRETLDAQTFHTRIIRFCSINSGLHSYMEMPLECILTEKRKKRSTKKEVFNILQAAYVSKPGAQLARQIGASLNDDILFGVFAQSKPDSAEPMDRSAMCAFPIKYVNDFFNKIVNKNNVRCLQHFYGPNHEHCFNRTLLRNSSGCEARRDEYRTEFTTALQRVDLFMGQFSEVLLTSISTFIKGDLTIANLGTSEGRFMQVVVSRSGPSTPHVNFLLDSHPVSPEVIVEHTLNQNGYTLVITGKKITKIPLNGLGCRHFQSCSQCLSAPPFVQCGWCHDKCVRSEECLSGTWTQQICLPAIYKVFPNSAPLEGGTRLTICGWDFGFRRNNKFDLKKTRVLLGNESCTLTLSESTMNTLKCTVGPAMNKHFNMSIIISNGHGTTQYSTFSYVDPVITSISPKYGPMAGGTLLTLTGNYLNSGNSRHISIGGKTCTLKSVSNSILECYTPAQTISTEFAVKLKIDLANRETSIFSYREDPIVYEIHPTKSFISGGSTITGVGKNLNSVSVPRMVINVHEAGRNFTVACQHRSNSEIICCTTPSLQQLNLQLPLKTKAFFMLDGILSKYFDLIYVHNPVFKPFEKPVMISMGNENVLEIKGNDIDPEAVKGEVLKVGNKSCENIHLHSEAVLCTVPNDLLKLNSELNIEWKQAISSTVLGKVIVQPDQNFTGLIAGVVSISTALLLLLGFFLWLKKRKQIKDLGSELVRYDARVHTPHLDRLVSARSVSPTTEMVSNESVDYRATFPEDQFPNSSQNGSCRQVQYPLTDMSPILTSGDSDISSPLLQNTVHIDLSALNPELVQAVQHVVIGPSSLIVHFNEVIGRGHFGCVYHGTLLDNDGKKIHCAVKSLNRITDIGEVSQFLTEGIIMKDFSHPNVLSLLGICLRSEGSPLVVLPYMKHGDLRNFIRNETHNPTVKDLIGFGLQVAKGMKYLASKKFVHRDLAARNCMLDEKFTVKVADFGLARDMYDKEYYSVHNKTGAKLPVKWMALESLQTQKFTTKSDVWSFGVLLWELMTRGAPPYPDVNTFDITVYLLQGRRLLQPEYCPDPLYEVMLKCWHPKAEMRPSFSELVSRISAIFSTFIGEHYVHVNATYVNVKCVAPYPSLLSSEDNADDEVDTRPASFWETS
Assay: whole cell phage ELISA, 3T3 human cMet vs 3T3
quantity: WC ELISA (fold over background) (fold)
Numbers only, in fold.

Some entries whose results are on file:
| binder | unit symbol | numeric result |
| --- | --- | --- |
| GDPWWCFEKDSFIPFACWHHDP [330-G02 peptide-displaying phage (SEQ ID NO: 396)] | fold | 1.3 |
| AGYFECKGPPTFECWLSGT [333-H03 peptide-displaying phage (SEQ ID NO: 060)] | fold | 1.43 |
| AGDFICQGPPSFVCTNIGT [550-A08 peptide-displaying phage (SEQ ID NO: 097)] | fold | 1.27 |

Batch request: WC ELISA (fold over background) for each of the following binders.
1. AQFPLEFDVPNFSYHWLVSFNP [118-C07 peptide-displaying phage (SEQ ID NO: 460)]
2. AQVGESLDDGWTFFSDKWFDFF [27-D10 peptide-displaying phage (SEQ ID NO: 485)]
3. AQSPYIFPIDDSGRQIFVIQWG [76-D09 peptide-displaying phage (SEQ ID NO: 463)]

1.27
1.17
1.23
